SYSTEM NAME: Aβ1-40 peptide (Homo sapiens, UniProt P05067)
Construct: An Aβ1-40 peptide monomer stock solution was prepared by dissolving the peptide in dimethylsulfoxide
Sequence (P05067 672-711 limits assumed): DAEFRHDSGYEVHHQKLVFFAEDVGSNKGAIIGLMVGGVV
PROTOCOL DESCRIPTION: Inhibition of aggregation of monomeric Aβ1-40 peptide stimulated by a seed of pre-formed sonicated Aβ1-40 amyloid fibrils (HPLC of residual monomer)
Format: biochemical
EXPERIMENTAL SETUP: 20 μM Aβ1-40 monomer, 50 μM test compound, 4 μM pre-formed sonicated Aβ1-40 fibrils, 2 h at 37° C., pH 7.4
MEASUREMENT LABEL: % inhibition (%)
Your answer should be a plain number; it is taken to be in %.

// lookup % inhibition for COc1cccc2c1C(=O)c1c(O)c3c(c(O)c1C2=O)CC(O)(C(=O)CN1CCOCC1)CC3 (stereo not shown) [Compound A17, 7-deoxy-14-(4-morpholinyl)-daunomycinone, reference compound]
11.4

// lookup % inhibition for COc1cccc2c1C(=O)c1c(O)c3c(c(O)c1C2=O)CC(O)(C(=O)CN1CC=CCC1)CC3O (stereo not shown) [Compound 1a]
74.1

// lookup % inhibition for COc1cccc2c1C(=O)c1c(O)c3c(c(O)c1C2=O)CC(O)(C(O)CN1CC=CCC1)CC3 (stereo not shown) [Compound 1d]
47.3

Now examine the next entry.
// lookup % inhibition for COc1cccc2c1C(=O)c1c(O)c3c(c(O)c1C2=O)CC(O)(C(=O)CN1CC=CCC1)CC3N1CCOCC1 (stereo not shown) [Compound 1k]
52.1
